Experiment: amyloid nucleation score (Sup35N fusion, yeast selection) (log enrichment); library NNK2; higher = more nucleation; inactive = no reads after selection;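 also: zero at mode of non-aggregating sequences after 7 days selection at 30°C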
Rule: class 1 for amyloid nucleation score not less than -0.03, class 0 for anything less.

Some solved cases for reference:
{"Substance": "PFGGVEAFAGRMWWVEHSYW", "Classification": "class 1"}
{"Substance": "SITMELVYLPYQFMKSRRSW", "Classification": "class 1"}
{"Substance": "SVMFMNSSFQRAT", "Classification": "class 0"}
{"Substance": "RLNVKDYFCYIAQESKTTDR", "Classification": "class 1"}
{"Substance": "SLTAVWDDLAMLKLWAEMEM", "Classification": "class 1"}
{"Substance": "AHHPYTNQGSTVRSRAGQWG", "Classification": "class 1"}

*Q* Could you tell me if the measured amyloid nucleation score of "VRYDGSKAFEVYMNQIENGS" reaches -0.03 or more?
*A* class 0

*Q* Could you tell me if the measured amyloid nucleation score of "HDINRMG" reaches -0.03 or more?
*A* class 1

*Q* // inclusive: amyloid nucleation score at least -0.03? input: "FPIAVVKRALDLAVNGLESD"
*A* class 1

*Q* Is reported amyloid nucleation score greater than or equal to -0.03 here: "RFGIGSLRSTSHVAGLMVMS"
*A* class 1

*Q* Decide: is the reported value of amyloid nucleation score for "HRNQTASKGCSCLLDCHDTG" equal to or greater than -0.03?
*A* class 1

*Q* Form field: amyloid nucleation score at least -0.03? Entry: "ILFGIPN"
*A* class 0

*Q* Check the entry "HLTAYCMSTHRQACDVDFDF" : does amyloid nucleation score equal or exceed -0.03?
*A* class 0

*Q* I'd appreciate it if you could say whether "ALMSCLLCVHWRLDSATGGR" has amyloid nucleation score at least equal to -0.03.
*A* class 1

*Q* Form field: amyloid nucleation score at least -0.03? Entry: "NSSRGQPHLSNFPIRHHHVN"
*A* class 1

*Q* Is reported amyloid nucleation score greater than or equal to -0.03 here: "VVWARYSVNLWMNLGSQASF"
*A* class 1

*Q* Decide: is the reported value of amyloid nucleation score for "NPTYYRARGE" equal to or greater than -0.03?
*A* class 1

*Q* // inclusive: amyloid nucleation score at least -0.03? input: "CCMCCNDYCRPCFREGVWIG"
*A* class 0

*Q* Hi, just wondering whether "SLYLNKSSSSGRIQLYGLFT" shows amyloid nucleation score of -0.03 or higher.
*A* class 1

*Q* Can "ITYGKVLR" be said to have amyloid nucleation score at or above -0.03?
*A* class 1

*Q* Does "IKVAEGSLVCARYGRMVRLE" have a reported amyloid nucleation score of at least -0.03?
*A* class 1

*Q* Evaluate "HSFVNNEKASQMSSCETGGS" : amyloid nucleation score at minimum -0.03?
*A* class 0

*Q* Check the entry "EYEYGGYNSMNLNYIVARSE" : does amyloid nucleation score equal or exceed -0.03?
*A* class 1

*Q* State whether the measured amyloid nucleation score reaches -0.03, counting equality as reaching it, for "DSLINFRLKVPTMLCMFCWI"
*A* class 1

*Q* Check if amyloid nucleation score >= -0.03 (inclusive). Item: "KCYQSFNNADALM"
*A* class 0

* * *

Assay: amyloid nucleation score (Sup35N fusion, yeast selection) (log enrichment); library NNK2; higher = more nucleation; inactive = no reads after selection

{"Item sequence": "DSGFFWCV", "amyloid nucleation score": "inactive"}
{"Item sequence": "VLELLGPIMSRKIFLKVGFC", "amyloid nucleation score": "inactive"}
{"Item sequence": "CFTGFRVIMVNICEWCVVVS", "amyloid nucleation score": 3.9}
